// provenance: PubChem BioAssay

Assay: binders of probe aHhip on microarray, primary screen, stem cell growth factor project, biochemical, small-molecule microarray, fluorescence 635/667 (AID 1087);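 further: score merges spot fluorescence at 667nm with spot signal to noise ratio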
Settings: higher = more signal
Respond with label 1 for composite z-score values of -0.1 and above, label 0 for values below.

Would you say `[N-]=[N+]=NCc1ccccc1C[C@]1(C(N)=O)N=C(c2ccc(OCCCO)cc2)O[C@H]1c1ccccc1N=[N+]=[N-]` shows composite z-score at minimum -0.1?
label 1

# bool: composite z-score of CC(C)(C)OC(=O)CC[C@]1(C(=O)NCC(O)CO)N=C(c2ccc(OCCCO)cc2)O[C@H]1c1ccccc1CN=[N+]=[N-] (stereo partly drawn) >= -0.1
label 1

Quick check, composite z-score >= -0.1? `O=C1c2ccccc2[C@@]2(Cc3ccccc3N(Cc3ccccc3)C2=O)[C@H](c2ccc(CO)cc2)N1Cc1ccccc1C(F)(F)F`
label 0

Could you verify whether the entry `OCCCc1cc[n+](Cc2cccc(OC(F)(F)F)c2)cc1` shows composite z-score of no less than -0.1?
label 0

hey, is composite z-score for this one >= -0.1? O=C1OCCC=C[C@H]2OC34C=CCN(c5ccc6ccccc6c5)C(=O)[C@H]3N(CCCCCCO)C(=O)[C@@H]4C12 (stereo partly drawn)
label 0

Form field: composite z-score at least -0.1? Entry: `Cc1cccc(/C=C/C=O)c1`
label 1

Could you tell me if the measured composite z-score of C[C@H]1C2[C@H](Cc3ccccc3)NC(=O)[C@]23C(=O)N[C@H](Cc2ccccc2)C(=O)N[C@H](Cc2ccccc2)C(=O)NC/C=C/CCC/C=C/C3[C@@H]2O[C@]12C (stereo partly drawn) reaches -0.1 or more?
label 1

Does the reported composite z-score for `C=CC[C@@]1(C(=O)NCCN2CCOCC2)N=C(c2ccc(OCCCO)cc2)O[C@@H]1c1ccccc1CN=[N+]=[N-]` fall at or above the -0.1 mark?
label 1

Exam item: decide whether the reported composite z-score for `O=c1cccc(-c2ccccc2)o1` is at least -0.1.
label 1

Dear colleague, could you confirm whether COc1cc(NN2C(C(O)c3ccccc3)C=CC3C(=O)N(c4ccccc4)C(=O)C32)cc(OC)c1OC (stereo not drawn) has composite z-score at or above -0.1?
label 0

Test whether the compound [N-]=[N+]=NCc1ccccc1C[C@]1(C(=O)NCC(O)CO)COC(c2ccc(OCCCO)cc2)=N1 (stereo partly drawn) records composite z-score of -0.1 or higher.
label 0

Decide: composite z-score of CCCCN1CC=CC23O[C@@H]4/C=C\CCCOC(=O)C4[C@H]2C(=O)N(C(C)CO)[C@@H]3C1=O (stereo partly drawn) >= -0.1?
label 0

hey, is composite z-score for this one >= -0.1? `CCCC[C@H]1C[C@@H]1[C@@H]1N(P(=O)(c2ccccc2)c2ccccc2)[C@](CO)(c2ccccc2)CC12CC2`
label 1

In plain terms: is recorded composite z-score at least -0.1 for `C=C(/C(=C/C[C@@H](OC(=O)c1ccncc1)c1ccc(CO)o1)c1cc(C(=O)OC)ccc1OC)C(C)C` ?
label 1

Tell me whether composite z-score is at least -0.1 here: CN1C(=O)C2C=CC(C(O)C(C)(C)C)N(Nc3ccccc3)C2C1=O (stereo not drawn)
label 0

Is it the case that `CCCNC(=O)[C@@]1(C)c2ccccc2C(=O)N(C(C)C)[C@H]1c1ccc(CO)cc1` has composite z-score reaching or exceeding -0.1?
label 0

Is reported composite z-score greater than or equal to -0.1 here: `CN(C)CCCCCCNC(=O)[C@@H]1C[C@@H]2C(=O)NCC(=O)N2[C@@H]1c1cccc(OCCO)c1`
label 1

Could you please find out whether `CCOC(=O)C1=CC[C@@H](c2ccccc2)N(S(=O)(=O)c2ccc(C)cc2)[C@H]1c1ccc(C#N)cc1` has composite z-score that meets -0.1 or exceeds it?
label 0

Is the recorded value of composite z-score equal to or greater than -0.1 for this compound? CC(C)OC(=O)C1=CCC(c2cccc(Cl)c2)O1 (stereo not drawn)
label 0

For this compound, is measured composite z-score -0.1 or higher? `CCCNC(=O)[C@@]1(C)c2ccccc2C(=O)N(Cc2cc(C(F)(F)F)cc(C(F)(F)F)c2)[C@H]1c1ccc(CO)cc1`
label 1

Could you verify whether the entry `CCCC[C@H]1OB(O)C[C@H]2C1=C(C)Cn1c(=O)n(-c3ccccc3)c(=O)n12` shows composite z-score of no less than -0.1?
label 1

# check: composite z-score of `COc1ccc(C#Cc2ccc3c(c2)[C@]2(C(=O)N3)[C@H](C(=O)N3CCN(c4ncccn4)CC3)[C@H]3C(=O)O[C@H](c4ccccc4)[C@H](c4ccccc4)N3[C@@H]2c2ccc(O)cc2)cc1` is greater than or equal to -0.1
label 0

Could you please find out whether `C=C(CCCC)C(=O)CC[C@@H](OC(=O)c1ccccc1-c1ccccc1C(=O)O)c1ccc(CO)o1` has composite z-score that meets -0.1 or exceeds it?
label 1

Please check the record CC(c1ccccc1)C(O)C1C=CC2C(=O)N(Cc3ccccc3)C(=O)C2N1n1cnnc1 (stereo not drawn) and state if its composite z-score is at or above -0.1.
label 1

Test whether the compound [N-]=[N+]=NCc1ccccc1[C@H]1OC(c2ccc(OCCCO)cc2)=N[C@@]1(Cc1ccccc1)C(=O)NCC(O)CO (stereo partly drawn) records composite z-score of -0.1 or higher.
label 0

Given `[N-]=[N+]=Nc1ccccc1[C@@H]1OC(c2ccc(OCCCO)cc2)=N[C@]1(CCS(=O)(=O)c1ccccc1)C(=O)O` , state whether its composite z-score is at least -0.1.
label 1

---

Assay: budding yeast growth modifiers under rapamycin – strain BY4716, OD600, 96 h, primary screen (AID 1091); further: test concentration not given here
Conditions: S. cerevisiae BY4716 + rapamycin, higher = more signal, called active from +8 up or from −8 down
Returns the class for an entry based on its z-score. Class ranges: group A (below -0.4), group B (-0.4 to below 1), group C (1 or more)

[
  {
    "molecule": "O=C1O[C@H](c2ccccc2)[C@H](c2ccccc2)N2[C@H]1[C@@H](C(=O)Nc1nc3ccccc3s1)[C@]1(C(=O)Nc3ccc(C#CC4=CCCCC4)cc31)[C@H]2c1ccc(OCCO)cc1",
    "discrete_label": "group C"
  }
]

Which class is correct for the following molecule? `C=CCCN(CC#C[C@H]1Oc2ccccc2S(=O)(=O)N2CCC[C@@H]12)S(=O)(=O)c1ccc(C)cc1`
group B

Where would `O=C1C[C@@](C(=O)O)(c2ccc([N+](=O)[O-])cc2)[C@@H](c2ccc(CO)cc2I)N1C1CCCCC1` land among the classes by reported z-score?
group B

Which bin, given its z-score, does `Cc1c(NC(=O)/C(C#N)=C/C=C/c2ccccc2)c(=O)n(-c2ccccc2)n1C` occupy?
group B

Returns: class label. Input: `CCCCC(=O)N(Cc1ccccc1F)[C@@H]1CC(C(=O)NCCO)=C[C@H](Oc2c(I)cc(CO)cc2OC)[C@H]1O`
group A

Which category does the recorded z-score put `C=CCNC(=O)[C@H]1[C@@H]2C(=O)O[C@@H](c3ccccc3)[C@@H](c3ccccc3)N2[C@@H](c2ccc(OCCO)cc2)[C@]12C(=O)N(C(=O)OCCOC)c1ccc(C#CC3(O)CCCCCC3)cc12` in?
group C

Form: Item = `[N-]=[N+]=Nc1ccccc1[C@@H]1OC(c2ccc(OCCCO)cc2)=N[C@]1(CCS(=O)(=O)c1ccccc1)C(=O)O` ; Class = ?
group A

Lab log: `C=CCNC(=O)[C@H]1[C@@H]2C(=O)O[C@@H](c3ccccc3)[C@@H](c3ccccc3)N2[C@@H](c2ccc(O)cc2)[C@]12C(=O)Nc1ccc(C#Cc3ccc(OC)cc3)cc12` — assign z-score category
group B

Using the reported z-score, which band applies to `COc1ccc(CCNC(=O)[C@@]2(C)c3ccccc3C(=O)N(Cc3ccccc3)[C@H]2c2ccc(CO)cc2)cc1` ?
group A

---

Biological target: Luciferin 4-monooxygenase (Photinus pyralis) (UniProt P08659)
Sequence (P08659 whole entry, looked up): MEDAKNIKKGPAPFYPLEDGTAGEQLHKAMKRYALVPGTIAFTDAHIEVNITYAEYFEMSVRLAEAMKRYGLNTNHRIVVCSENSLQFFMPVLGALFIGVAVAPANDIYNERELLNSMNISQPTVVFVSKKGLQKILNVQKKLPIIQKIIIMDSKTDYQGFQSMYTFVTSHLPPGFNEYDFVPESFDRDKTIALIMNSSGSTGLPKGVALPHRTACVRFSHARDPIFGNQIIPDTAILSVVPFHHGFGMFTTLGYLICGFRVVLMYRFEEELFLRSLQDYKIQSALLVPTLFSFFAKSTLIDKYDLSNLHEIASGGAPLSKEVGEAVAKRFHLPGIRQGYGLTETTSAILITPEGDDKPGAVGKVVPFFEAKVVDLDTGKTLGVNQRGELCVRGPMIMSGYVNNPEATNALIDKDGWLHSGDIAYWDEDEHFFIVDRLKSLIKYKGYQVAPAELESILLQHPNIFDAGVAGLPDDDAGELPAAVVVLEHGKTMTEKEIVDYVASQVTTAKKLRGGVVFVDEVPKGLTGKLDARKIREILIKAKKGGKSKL
Experiment: inhibition of purified Photinus pyralis luciferase – biochemical, luminescence, purified enzyme, 2006 set, primary screen (AID 1141);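 further: cell-free assay with purified firefly luciferase at 100 ng per well in PBS; test concentration not given here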
Details: purified firefly luciferase, SteadyGlo luminescence, 30 min; higher = more signal, called active from +8 up or from −8 down
measured_parameter: z-score
Please reply with the value in numeric form only.

[
  {
    "molecule": "COC(=O)[C@@]1(Cc2ccc(OC)cc2)[C@H]2c3cc(C(=O)N4CCCC4)n(CCc4ccccn4)c3C[C@H]2CN1C(=O)c1ccccc1",
    "z-score": 2.15
  }
]

Hello, please tell me recorded z-score for this one: `C=CCNC(=O)[C@H]1[C@@H]2C(=O)O[C@@H](c3ccccc3)[C@@H](c3ccccc3)N2[C@@H](c2ccc(O)cc2)[C@]12C(=O)Nc1ccc(C#Cc3ccc(OC)cc3)cc12`
0.153

Specify measured z-score for O=C1OCCC/C=C\[C@H]2OC34C=CCN(Cn5nnc6ccccc65)C(=O)[C@H]3N(CCCO)C(=O)[C@@H]4C12 (some centres not stated) .
0.656

Specify measured z-score for `CCCC[C@H]1OB(O)C[C@H]2C1=C(C)Cn1c(=O)n(-c3ccccc3)c(=O)n12` .
0.169

State its z-score: `CO[C@H]1O[C@H](CO)[C@@H](OC(=O)Nc2ccc(C(F)(F)F)cc2)[C@H](OC(=O)Nc2ccccc2)[C@@H]1OC(=O)Nc1ccccc1`
-0.72

Give z-score for `Cc1ccc(S[C@]2(C(=O)NCc3ccccc3)CC(=O)N(Cc3cc(C(F)(F)F)cc(C(F)(F)F)c3)[C@@H]2c2ccc(CO)cc2)cc1`
-0.372

Indicate its recorded z-score; the molecule in question is COCC1C2CC[C@H]3C(OCc4ccc(F)cc4C(F)(F)F)OC[C@]4(C)[C@H]3C2=C(CN4C(=O)OC(C)(C)C)[C@H](C)C1COC (some centres not stated)
0.248
